test system: Vx-2 cell line; assay: ATP dependent luminescence cell viability assay, VX2; assay type: cell-based; conditions: Vx-2; at 48 hours; read-out: IC50 (ATP depletion)
READOUT: IC50 (µM)

[[record]]
molecule = "O=C(O)C(=O)CBr [3-BrPA, 3-bromopyruvate]"
observed = 50

